This collection of values is drawn from paper PMC4387075.

Please provide measured pEC50 for the entries that follow.
- target.or.system: mGlu1 receptors (Rattus norvegicus, UniProt P23385)
- Sequence (P23385 19-1199): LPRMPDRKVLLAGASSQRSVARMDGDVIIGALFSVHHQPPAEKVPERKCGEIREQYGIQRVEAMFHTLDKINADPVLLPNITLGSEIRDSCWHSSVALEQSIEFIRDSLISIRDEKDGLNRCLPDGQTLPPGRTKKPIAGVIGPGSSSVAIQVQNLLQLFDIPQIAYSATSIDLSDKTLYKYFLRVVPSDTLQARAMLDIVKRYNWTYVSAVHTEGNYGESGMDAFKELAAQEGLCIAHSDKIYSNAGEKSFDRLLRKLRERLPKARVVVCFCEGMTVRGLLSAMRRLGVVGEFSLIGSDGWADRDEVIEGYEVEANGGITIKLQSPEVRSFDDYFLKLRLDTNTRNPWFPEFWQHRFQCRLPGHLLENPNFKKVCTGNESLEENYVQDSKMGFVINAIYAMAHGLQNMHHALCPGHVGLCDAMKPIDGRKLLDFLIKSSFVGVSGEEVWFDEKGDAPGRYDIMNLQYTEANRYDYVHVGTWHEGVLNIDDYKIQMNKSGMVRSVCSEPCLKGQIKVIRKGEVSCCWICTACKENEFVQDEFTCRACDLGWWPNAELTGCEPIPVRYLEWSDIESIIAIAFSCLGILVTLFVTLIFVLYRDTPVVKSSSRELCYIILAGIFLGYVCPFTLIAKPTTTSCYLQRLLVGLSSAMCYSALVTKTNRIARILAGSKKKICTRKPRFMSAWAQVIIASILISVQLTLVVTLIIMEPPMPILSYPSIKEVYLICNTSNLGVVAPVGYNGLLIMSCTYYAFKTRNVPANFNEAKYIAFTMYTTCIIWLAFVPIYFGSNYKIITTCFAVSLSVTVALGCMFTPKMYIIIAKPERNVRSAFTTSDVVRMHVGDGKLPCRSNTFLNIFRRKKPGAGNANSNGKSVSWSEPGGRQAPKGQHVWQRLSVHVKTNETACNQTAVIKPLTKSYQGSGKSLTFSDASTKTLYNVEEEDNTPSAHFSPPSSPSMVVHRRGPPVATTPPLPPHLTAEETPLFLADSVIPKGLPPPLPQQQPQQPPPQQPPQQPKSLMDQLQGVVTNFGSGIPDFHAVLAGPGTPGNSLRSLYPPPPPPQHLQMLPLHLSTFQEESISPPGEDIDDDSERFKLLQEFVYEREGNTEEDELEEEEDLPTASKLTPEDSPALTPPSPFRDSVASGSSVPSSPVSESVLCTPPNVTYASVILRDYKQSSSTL
- assay.procedure: PI hydrolysis
- Format: cell-based
Scale note: pEC50 = -log10(concentration in M).

Suppose we examine the compound N[C@@H](CC(=O)O)C(=O)O [Aspartate, aspartate] ; what pEC50 value has been reported?
4.72

Suppose we examine the compound NC(C(=O)O)c1cc(O)cc(O)c1 (centres unmarked) [DHPG, 3,5-dihydroxyphenylglycine] ; what pEC50 value has been reported?
4.64

----------
- target.or.system: UniProt P23385
- assay.procedure: PI hydrolysis
- Type: cell-based
- study.conditions: efficacy as percentage of glutamate efficacy; mean +/- 95% confidence interval
Threshold-based label: PI hydrolysis Emax, % glu under 80 % glu gives met, PI hydrolysis Emax, % glu not under 80 % glu gives not met.

Just wondering, is PI hydrolysis Emax, % glu of N[C@@H](Cn1oc(=O)[nH]c1=O)C(=O)O [Quisqualate, quisqualate] below 80 % glu?
not met

Just wondering, is PI hydrolysis Emax, % glu of N[C@@]1(C(=O)O)CC[C@@H](C(=O)O)C1 below 80 % glu?
met

Just wondering, is PI hydrolysis Emax, % glu of N[C@@H](CC(=O)O)C(=O)O [Aspartate, aspartate] below 80 % glu?
not met

Just wondering, is PI hydrolysis Emax, % glu of N[C@@H](CCS(=O)(=O)O)C(=O)O below 80 % glu?
not met

Just wondering, is PI hydrolysis Emax, % glu of NC(C(=O)O)c1cc(O)cc(O)c1 (stereo not shown) [DHPG, 3,5-dihydroxyphenylglycine] below 80 % glu?
met

Just wondering, is PI hydrolysis Emax, % glu of N[C@@H](CS(=O)(=O)O)C(=O)O below 80 % glu?
not met
